System: Es-2
ASSAY_OVERVIEW: Primary qHTS to identify gynecologic anti-cancer compounds using libraries of approved drugs and bioactive compounds (AID 1345084); also: nearly all actives have a fitted effect of over 55% in size
TEST_SETTINGS: Gynecologic cancer cell panel viability, ATPlite luminescence, 48 h; series mostly up to 57.5 µM
Inconclusive results are not listed. Activity calls are given as the source filed them. Calls follow the shape of the dose curve; as a rule, active = well fitted cell-killing curve with a large enough effect; inconclusive = small, poorly fitted or top-dose-only effect, or effect the other way; inactive = flat fitted curve, though single readings scatter.
ENDPOINT_LABEL: outcome

# MOLECULE, ENDPOINT_LABEL, RESULT
rows = [
    ("CCN(CC)CCCC(C)Nc1ccnc2cc(Cl)ccc12 (stereo unspecified)", "outcome", "inactive"),
    ("Cc1cn[nH]c1", "outcome", "inactive"),
    ("CC(C)OC(=O)C1=CN(C(=O)c2ccc(F)c(F)c2)CC(C)(C)c2c1[nH]c1ccccc21", "outcome", "inactive"),
    ("Cc1[nH]c(=O)c(C#N)cc1-c1ccc2nccn2c1", "outcome", "inactive"),
    ("N[C@@H]1CONC1=O", "outcome", "inactive"),
    ("Clc1cccc(Cl)c1NC1=NCCN1", "outcome", "inactive"),
]
